# Test system: Staphylococcus aureus
# Procedure summary: In vitro inhibitory activity against Staphylococcus aureus (EryRi 011GO25i)
# Assay type: functional
Listing of recorded MIC by entry.
State the answer as a number, implicitly in µg/mL.

- CC[C@H]1OC(=O)[C@H](C)C(=O)[C@H](C)[C@@H](O[C@@H]2O[C@H](C)C[C@H](N(C)C)[C@H]2O)[C@](C)(OC)C[C@@H](C)C(=O)[C@@H](C)[C@H]2NC(=O)O[C@@]21C: 40

Name the recorded MIC of the compound listed here: CCCN1C(=O)O[C@]2(C)[C@@H](CC)OC(=O)[C@H](C)C(=O)[C@H](C)[C@@H](O[C@@H]3O[C@H](C)C[C@H](N(C)C)[C@H]3O)[C@](C)(OC)C[C@@H](C)C(=O)[C@H](C)[C@@H]12
5

Name the recorded MIC of the compound listed here: CC[C@H]1OC(=O)[C@H](C)C(=O)[C@H](C)[C@@H](O[C@@H]2O[C@H](C)C[C@H](N(C)C)[C@H]2O)[C@](C)(OC)C[C@@H](C)/C(=N\OC2CCCN(C)C2)[C@H](C)[C@@H](O)[C@]1(C)O (stereo not given in full)
0.3

Name the recorded MIC of the compound listed here: CC[C@H]1OC(=O)[C@H](C)C(=O)[C@H](C)[C@@H](O[C@@H]2O[C@H](C)C[C@H](N(C)C)[C@H]2O)[C@](C)(OC)C[C@@H](C)C(=O)[C@H](C)[C@@H](O)[C@]1(C)O
40

Name the recorded MIC of the compound listed here: CC[C@H]1OC(=O)[C@H](C)C(=O)[C@H](C)[C@@H](O[C@@H]2O[C@H](C)C[C@H](N(C)C)[C@H]2O)[C@](C)(OC)C[C@@H](C)C(=O)[C@H](C)[C@H]2N(CCOCc3ccccc3)C(=O)O[C@]12C
0.08

###

Listing of recorded MIC90 by entry.
# Test system: Haemophilus
# Procedure summary: In vitro inhibitory activity against Haemophilus AmpS (43)
# Format: functional
State the answer as a number, implicitly in µg/mL.

- CO[C@@H]1[C@@H](OC2OC(C)C(OC3CC(C)(O)C(OC(=O)CC(C)C)C(C)O3)C(N(C)C)C2O)[C@@H](CC=O)C[C@@H](C)[C@@H](O)/C=C/C=C/C[C@@H](C)OC(=O)C[C@H]1OC(C)=O (some centres not stated): 20

# next compound below
Name the recorded MIC90 of the compound listed here: CC[C@H]1OC(=O)[C@H](C)[C@@H](O[C@H]2C[C@@](C)(OC)[C@@H](O)[C@H](C)O2)[C@H](C)[C@@H](O[C@@H]2O[C@H](C)C[C@H](N(C)C)[C@H]2O)[C@](C)(OC)C[C@@H](C)C(=O)[C@H](C)[C@@H](O)[C@]1(C)O
5

###

# Tested on: Staphylococcus aureus
# Procedure summary: In vitro inhibitory activity against Staphylococcus aureus (EryRi 011GO25i)
# Format: functional
Measurement name: MIC
Respond with a number, then the unit of measure.

Some compounds with recorded MIC:
* CC[C@H]1OC(=O)[C@H](C)[C@@H](O[C@H]2C[C@@](C)(OC)[C@@H](O)[C@H](C)O2)[C@H](C)[C@@H](O[C@@H]2O[C@H](C)C[C@H](N(C)C)[C@H]2O)[C@](C)(OC)C[C@@H](C)C(=O)[C@H](C)[C@@H](O)[C@]1(C)O | 40 µg/mL
* CC[C@H]1OC(=O)[C@H](C)C(=O)[C@H](C)[C@@H](O[C@@H]2O[C@H](C)C[C@H](N(C)C)[C@H]2O)[C@](C)(OC)C[C@@H](C)/C(=N\OCCN2CCCCC2)[C@H](C)[C@@H](O)[C@]1(C)O | 2.5 µg/mL
* CC[C@H]1OC(=O)[C@H](C)C(=O)[C@H](C)[C@@H](O[C@@H]2O[C@H](C)C[C@H](N(C)C)[C@H]2O)[C@](C)(OC)C[C@@H](C)C2=NCCN3C(=O)O[C@@]1(C)[C@H]3[C@H]2C | 0.6 µg/mL

Name the recorded MIC of the compound listed here: CC[C@H]1OC(=O)[C@H](C)C(=O)[C@H](C)[C@@H](O[C@@H]2O[C@H](C)C[C@H](N(C)C)[C@H]2O)[C@](C)(OC)C[C@@H](C)C(=O)[C@H](C)[C@H]2N(NCCCc3ccccc3)C(=O)O[C@]12C
0.15 µg/mL

Name the recorded MIC of the compound listed here: CC[C@H]1OC(=O)[C@H](C)C(=O)[C@H](C)[C@@H](O[C@@H]2O[C@H](C)C[C@H](N(C)C)[C@H]2O)[C@](C)(OC)C[C@@H](C)C(=O)[C@H](C)[C@H]2N(NCCCc3ccnc4ccccc34)C(=O)O[C@]12C
0.08 µg/mL

Name the recorded MIC of the compound listed here: CC[C@H]1OC(=O)[C@H](C)C(=O)[C@H](C)[C@@H](O[C@@H]2O[C@H](C)C[C@H](N(C)C)[C@H]2O)[C@](C)(OC)C[C@@H](C)/C(=N\O)[C@H](C)[C@@H](O)[C@]1(C)O
1.2 µg/mL

Name the recorded MIC of the compound listed here: CC[C@H]1OC(=O)[C@H](C)C(=O)[C@H](C)[C@@H](O[C@@H]2O[C@H](C)C[C@H](N(C)C)[C@H]2O)[C@](C)(OC)C[C@@H](C)C(=O)[C@H](C)[C@H]2N(CCCCc3ccnc4ccccc34)C(=O)O[C@]12C
0.08 µg/mL
